protocol summary: folding stability dG unfold from chymotrypsin proteolysis; higher = more stable
Binary call on folding stability dG unfold: yes from 8 kJ/mol upward, no beneath that.

sequence code	cat
SAGGGPLKPILLKVTAKVEKNGKLLEVEAEIAVPLPNKPITLEEIRKILEEALPPDVKIVSLELDPESAGGS [r16_407_TrMRF]	yes
SAGGSAGGSASKDDKIVKVKVFTIKLKPNLEGLPKKVRELLEKLGIKEIKITFVSVFNPEDFSAGGSAGGSA [r18_127_TrMRF]	yes
SAGGSAGGSMKEGTFNSEEEVEELKKKYPNVEVYEDPETNTIHVKIKEESEKEYEEENIKKLKSAGGSAGGS [r20_191_JUSTAS]	no
SIIIQFDNPEEAKENAEDFINEFQDEFGPGQKIPITIHDPGGDPATFPIEIEPPPPPVEYDEENGKLKPDSA [r9_596_TrROS]	no
SAGGSAGGSAGGSEKPPIKLKIKVYDPETNELVSEVEVELEPGQSLEELLKKFDVVEIESAGGSAGGSAGGS [r4_187_TrROS_Hall]	yes

State whether the measured folding stability dG unfold reaches 8 kJ/mol, counting equality as reaching it, for SAGGSAGGEIVITLPNVKSKEEAKKAAEKLIEELKKKGIKDKTIKVTVIDEKTGKEYTFTIKLKSAGGSAGG [r6_237_TrROS_Hall]
yes

Cool, now SAGGSAGGSAGGSKKKVLYIKIDVKPNMTPEEVAKLLQEKFGVKIKKVEVENGYLKIYFSAGGSAGGSAGGS [r4_469_TrROS_Hall]
yes

Cool, now SAGGSAGGSAGPEEFEVLEMEAELNPETGEITVRFGSPEGEEITYTVTRPGELENLKLYASAGGSAGGSAGG [r11_711_TrMRF]
no

Cool, now SAGGATIELEVLLEDGTLVRVRAELDEDGRLVSVEVEVRRLEPPPPPPPPERTETRVETRTEYRPEESAGGS [r8_270_TrROS_Hall]
yes

Cool, now SAGGKKYVLIKVKVRVEKEVNGEKKEVELELEILVPVDEETGKTPEEKAKELAKKLPPEVTEVKIEPVSAGG [r13_335_TrROS_Hall]
yes

Cool, now SAGGSAGGSAGGPRTLTLTVTLTRTYYDEETGEEVETETETLTLTLRLEPPPPLSPEQLSAGGSAGGSAGGS [r10_50_TrROS_Hall]
yes
